TARGET_OR_SYSTEM: Alpha-2A adrenergic receptor (Homo sapiens); note: in other assays of this panel Not Active means under 50% inhibition at 10 µM
Sequence (P08913 whole entry): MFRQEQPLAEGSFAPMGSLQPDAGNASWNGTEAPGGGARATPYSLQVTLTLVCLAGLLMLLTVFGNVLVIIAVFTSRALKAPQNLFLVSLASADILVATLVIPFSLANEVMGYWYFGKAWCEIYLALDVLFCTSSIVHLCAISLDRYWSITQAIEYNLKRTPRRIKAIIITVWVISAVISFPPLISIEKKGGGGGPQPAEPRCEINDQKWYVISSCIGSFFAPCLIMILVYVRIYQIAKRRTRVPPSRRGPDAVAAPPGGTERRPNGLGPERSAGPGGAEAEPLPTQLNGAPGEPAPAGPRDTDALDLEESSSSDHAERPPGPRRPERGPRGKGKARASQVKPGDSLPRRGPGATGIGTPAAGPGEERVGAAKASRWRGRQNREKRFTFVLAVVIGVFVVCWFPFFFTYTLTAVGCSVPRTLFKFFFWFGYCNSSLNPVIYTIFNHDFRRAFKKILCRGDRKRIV
Format: cell membranes, Sf9, Membrane
CONDITION: read-out: IC50
For each entry below, report its IC50 value.
Give bare numbers, in µM.

For orientation, consider the following solved cases.
COMPOUND: CC[C@@H](CO)NC(=O)[C@@H]1C=C2c3cccc4[nH]cc(c34)C[C@H]2N(C)C1 [METHYLERGONOVINE]
PARAMETER_MEASURED: IC50
OBSERVED: 1.59
//
COMPOUND: CC(C)N1CCN(c2ccc(OCC3COC(Cn4cncn4)(c4ccc(Cl)cc4Cl)O3)cc2)CC1 (centres undefined) [TERCONAZOLE]
PARAMETER_MEASURED: IC50
OBSERVED: 0.983
//
COMPOUND: CN(C)CCCN1c2ccccc2Sc2ccccc21 [PROMAZINE]
PARAMETER_MEASURED: IC50
OBSERVED: 0.337
//
COMPOUND: O=C(CCCN1CC=C(n2c(=O)[nH]c3ccccc32)CC1)c1ccc(F)cc1 [DROPERIDOL]
PARAMETER_MEASURED: IC50
OBSERVED: 2.96
//
COMPOUND: CN(Cc1ccc(C(C)(C)C)cc1)Cc1cccc2ccccc12 [BUTENAFINE]
PARAMETER_MEASURED: IC50
OBSERVED: 3.64
//
COMPOUND: CC(C)[C@H]1C(=O)N2CCC[C@H]2[C@]2(O)O[C@](NC(=O)[C@@H]3C=C4c5cccc6[nH]cc(c56)C[C@H]4N(C)C3)(C(C)C)C(=O)N12 [ERGOCORNINE]
PARAMETER_MEASURED: IC50
OBSERVED: 0.0063
//
COMPOUND: CC(C)[C@@]1(NC(=O)[C@@H]2C[C@@H]3c4cccc5[nH]cc(c45)C[C@H]3N(C)C2)O[C@@]2(O)[C@@H]3CCCN3C(=O)[C@H](Cc3ccccc3)N2C1=O.CS(=O)(=O)O [DIHYDROERGOCRISTINE MESYLATE]
PARAMETER_MEASURED: IC50
OBSERVED: 0.00199
//
COMPOUND: O=c1ncn2nc(Sc3ccc(F)cc3F)ccc2c1-c1c(Cl)cccc1Cl [NEFLAMAPIMOD]
PARAMETER_MEASURED: IC50
OBSERVED: 34.2

Now turn to the next compound.
Q) If you can, please state the reported IC50 value of CC/C(=C(\c1ccccc1)c1ccc(OCCN(C)C)cc1)c1ccccc1 [TAMOXIFEN] .
A) 1.93

----------
TARGET_OR_SYSTEM: cGMP-specific 3',5'-cyclic phosphodiesterase (Homo sapiens, UniProt O76074)
ASSAY_NOTES: DRUGMATRIX: Phosphodiesterase PDE5 enzyme inhibition (substrate: [3H]cGMP + cGMP)
Assay type: tissue-based
CONDITION: platelet; Not Active = under 50% inhibition at 10 µM
PARAMETER_MEASURED: IC50

SUBSTANCE: LEAD (II) ACETATE
OBSERVED: Not Active

SUBSTANCE: SODIUM NITROPRUSSIDE
OBSERVED: Not Active

SUBSTANCE: CADMIUM ACETATE
OBSERVED: Not Active

SUBSTANCE: LIPOPOLYSACCHARIDE E. COLI O55:B5
OBSERVED: Not Active

----------
Give pKi for every item shown.
TARGET_OR_SYSTEM: D(1A) dopamine receptor (Homo sapiens)
Sequence (P21728 whole entry): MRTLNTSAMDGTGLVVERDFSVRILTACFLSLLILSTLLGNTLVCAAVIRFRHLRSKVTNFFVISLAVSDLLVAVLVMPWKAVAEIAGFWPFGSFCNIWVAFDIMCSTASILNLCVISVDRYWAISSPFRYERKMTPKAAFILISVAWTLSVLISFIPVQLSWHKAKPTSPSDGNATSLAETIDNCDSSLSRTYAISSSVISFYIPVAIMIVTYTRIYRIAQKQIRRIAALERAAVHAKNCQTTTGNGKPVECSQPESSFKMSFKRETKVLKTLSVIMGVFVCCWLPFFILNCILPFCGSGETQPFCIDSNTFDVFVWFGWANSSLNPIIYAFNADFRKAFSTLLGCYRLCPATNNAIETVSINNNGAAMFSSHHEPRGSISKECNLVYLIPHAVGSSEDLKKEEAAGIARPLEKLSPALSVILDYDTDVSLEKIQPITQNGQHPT
ASSAY_NOTES: DRUGMATRIX: Dopamine D1 radioligand binding (ligand: [3H] SCH-23390)
Assay type: cell membranes, CHO, Membrane
CONDITION: Not Active = under 50% inhibition at 10 µM; read-out: Ki
Answers are plain numbers, as −log10 of the molar value.

Reference set (2 entries):
COMPOUND: CC(C)[C@@]1(NC(=O)[C@@H]2C[C@@H]3c4cccc5[nH]cc(c45)C[C@H]3N(C)C2)O[C@@]2(O)[C@@H]3CCCN3C(=O)[C@H](Cc3ccccc3)N2C1=O.CS(=O)(=O)O [DIHYDROERGOCRISTINE MESYLATE]
pKi: 6.23
//
COMPOUND: CC[C@@H](CO)NC(=O)[C@@H]1C=C2c3cccc4[nH]cc(c34)C[C@H]2N(C)C1
pKi: 6.27

From here, focus on the item given below.
Q) Can you share its pKi? I mean this compound: `CC(C)[C@H]1C(=O)N2CCC[C@H]2[C@]2(O)O[C@](NC(=O)[C@@H]3C=C4c5cccc6[nH]cc(c56)C[C@H]4N(C)C3)(C(C)C)C(=O)N12`
A) 6.83

----------
Could you please report measured IC50 for the items listed next?
TARGET_OR_SYSTEM: Alpha-1A adrenergic receptor (Rattus norvegicus, UniProt P43140)
Sequence (P43140 whole entry): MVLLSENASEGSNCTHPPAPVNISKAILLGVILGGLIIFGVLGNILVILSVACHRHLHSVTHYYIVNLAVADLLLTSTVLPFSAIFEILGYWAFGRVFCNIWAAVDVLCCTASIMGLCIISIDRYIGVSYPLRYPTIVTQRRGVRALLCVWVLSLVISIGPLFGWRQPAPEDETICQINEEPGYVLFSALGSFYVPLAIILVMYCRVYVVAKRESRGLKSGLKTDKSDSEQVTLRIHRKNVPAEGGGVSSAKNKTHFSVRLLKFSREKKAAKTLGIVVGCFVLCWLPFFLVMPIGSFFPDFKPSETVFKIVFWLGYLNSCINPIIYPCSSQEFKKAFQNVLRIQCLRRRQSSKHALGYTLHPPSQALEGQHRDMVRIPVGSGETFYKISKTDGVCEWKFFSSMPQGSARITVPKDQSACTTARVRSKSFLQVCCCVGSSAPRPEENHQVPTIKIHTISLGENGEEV
ASSAY_NOTES: DRUGMATRIX: Alpha-1A adrenergic receptor radioligand binding (ligand: prazosin)
Assay type: cell membranes, Wistar, Submaxillary gland, Membrane
CONDITION: Not Active = under 50% inhibition at 10 µM; read-out: IC50
Give bare numbers, in µM.

COMPOUND: CN1CCN(CCCN2c3ccccc3Sc3ccc(Cl)cc32)CC1
IC50, µM: 0.032

State recorded IC50 for all listed compounds.
1. Nc1c2c(nc3ccccc13)CCCC2
2. CC(C)N1CCN(c2ccc(OCC3COC(Cn4cncn4)(c4ccc(Cl)cc4Cl)O3)cc2)CC1 (stereo not drawn)

A)
1. 2.75
2. 13.3

----------
TARGET_OR_SYSTEM: Endothelin-1 receptor (Homo sapiens); note: in other assays of this panel Not Active means under 50% inhibition at 10 µM
Sequence (P25101 whole entry): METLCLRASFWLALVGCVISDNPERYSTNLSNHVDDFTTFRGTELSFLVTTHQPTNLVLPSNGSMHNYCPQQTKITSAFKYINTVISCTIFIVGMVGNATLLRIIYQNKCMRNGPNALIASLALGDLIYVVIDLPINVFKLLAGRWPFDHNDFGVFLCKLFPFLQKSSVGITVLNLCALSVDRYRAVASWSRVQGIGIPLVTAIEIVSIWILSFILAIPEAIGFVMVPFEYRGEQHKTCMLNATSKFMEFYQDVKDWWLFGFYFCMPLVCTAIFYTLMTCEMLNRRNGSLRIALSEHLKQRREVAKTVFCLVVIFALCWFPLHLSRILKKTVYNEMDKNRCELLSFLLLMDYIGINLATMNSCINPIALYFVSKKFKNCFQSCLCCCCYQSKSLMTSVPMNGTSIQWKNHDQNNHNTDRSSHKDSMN
Type: cell membranes, CHO-K1, Membrane
CONDITION: cho-k1
PARAMETER_MEASURED: IC50

Some entries whose results are on file:
COMPOUND: CC(NC(C)(C)C)C(=O)c1cccc(Cl)c1 (stereo not given) [BUPROPION]
TARGET_OR_SYSTEM: Endothelin-1 receptor (Homo sapiens); note: in other assays of this panel Not Active means under 50% inhibition at 10 µM
OBSERVED: Not Active
//
COMPOUND: c1ccc2c(c1)c1cccc3ccc4cccc2c4c31 [BENZO[E]PYRENE]
TARGET_OR_SYSTEM: Endothelin-1 receptor (Homo sapiens); note: in other assays of this panel Not Active means under 50% inhibition at 10 µM
OBSERVED: Not Active
//
COMPOUND: C[C@H]1O[C@@H](O[C@H]2[C@@H](O)C[C@H](O[C@H]3[C@@H](O)C[C@H](O[C@H]4CC[C@@]5(C)[C@H](CC[C@@H]6[C@@H]5C[C@@H](O)[C@]5(C)[C@@H](C7=CC(=O)OC7)CC[C@]65O)C4)O[C@@H]3C)O[C@@H]2C)C[C@H](O)[C@@H]1O [DIGOXIN]
TARGET_OR_SYSTEM: Endothelin-1 receptor (Homo sapiens); note: in other assays of this panel Not Active means under 50% inhibition at 10 µM
OBSERVED: Not Active
//
COMPOUND: NC(=O)N1c2ccccc2CCc2ccccc21
TARGET_OR_SYSTEM: Endothelin-1 receptor (Homo sapiens); note: in other assays of this panel Not Active means under 50% inhibition at 10 µM
OBSERVED: Not Active
//
COMPOUND: CN(C)C(=O)Oc1cc(OC(=O)N(C)C)cc(C(O)CNC(C)(C)C)c1 (stereo not given) [BAMBUTEROL]
TARGET_OR_SYSTEM: Endothelin-1 receptor (Homo sapiens); note: in other assays of this panel Not Active means under 50% inhibition at 10 µM
OBSERVED: Not Active

I would be grateful if you could provide IC50 for each of the following entries.
1. COc1cc2nc(N3CCN(C(=O)C4COc5ccccc5O4)CC3)nc(N)c2cc1OC (stereo not given) [DOXAZOSIN]
2. N[C@@H](Cc1ccc(O)c(O)c1)C(=O)O [LEVODOPA]
3. Sc1ncnc2nc[nH]c12 [MERCAPTOPURINE ANHYDROUS]
4. Cn1ccnc1S [METHIMAZOLE]
5. O=C(CCCN1CC=C(n2c(=O)[nH]c3ccccc32)CC1)c1ccc(F)cc1 [DROPERIDOL]

A)
1. Not Active
2. Not Active
3. Not Active
4. Not Active
5. Not Active

Batch of 5 compounds: report IC50 for each.
1. CC(=O)[C@@]1(O)CC[C@H]2[C@@H]3C[C@H](C)C4=CC(=O)CC[C@]4(C)[C@H]3CC[C@@]21C
2. CCCC1O[C@@H]2C[C@H]3[C@@H]4CCC5=CC(=O)C=C[C@]5(C)[C@H]4[C@@H](O)C[C@]3(C)[C@]2(C(=O)CO)O1 (stereo not given in full) [BUDESONIDE]
3. Cc1nc2n(c(=O)c1CCN1CCC(c3noc4cc(F)ccc34)CC1)CCCC2 [RISPERIDONE]
4. Cc1cc(C2CCCCC2)n(O)c(=O)c1 [CICLOPIROX]
5. COc1cc2c3cc1Oc1cc(ccc1O)C[C@@H]1c4c(cc(OC)c(O)c4Oc4ccc(cc4)C[C@@H]3N(C)CC2)CC[N+]1(C)C.[Cl-]

A)
["Not Active", "Not Active", "Not Active", "Not Active", "Not Active"]
